Taken from ChEMBL document CHEMBL1138075.

TEST_TARGET: Glutamate NMDA receptor
TEST_DESCRIPTION: Displacement of L[3H]glutamate from GluR in rat brain synaptic membrane
pKi: −log10 of the molar value.
PARAMETER: pKi

a = C[C@@]1(C(=O)N[C@@H](CCC(=O)O)C(=O)O)CCCN1C(=O)CN (stereo in doubt; 1) [TROFINETIDE]
b = CC1(C)CC[C@H](C(=O)N[C@@H](CCC(=O)O)C(=O)O)N1C(=O)CN
c = CC1(C)CC[C@@H](C(=O)N[C@@H](CCC(=O)O)C(=O)O)N1C(=O)CN
Let's sort these by pKi, smallest first. Go ahead? Reply with the labels, ordered as the question asks. a, c, b
